Listed here are compounds together with their documented IC50.
- Test system: SiHa
- Test Summary: CCK-8 antiproliferative assay, SiHa
- Type: cell-based
- Conditions Used: CCK-8, 48 h, Table 1; read-out: IC50 SiHa
Readout Kind: IC50 (µM)

- COc1ccc(C2=N[C@@H](c3ccc(Cl)cc3)[C@@H](c3ccc(Cl)cc3)N2C(=O)N2CCNC(=O)C2)c(OC(C)C)c1 [Nutlin-3a, reference compound]: 56.6
- N.N.[Cl][Pt][Cl] [Cisplatin, reference compound]: 37

----------
- Test system: HeLa
- Test Summary: CCK-8 antiproliferative assay, HeLa
- Type: cell-based
- Conditions Used: Homo sapiens, HeLa, 48 h, read-out: IC50 HeLa
Readout Kind: IC50

• O=C(/C=C/c1ccccc1OC(F)(F)F)c1ccc(N2CCCC2)cc1 = 4.09 µM
• COc1ccc(F)cc1C(=O)/C=C/c1ccc(N2CCCC2)cc1 = 0.22 µM
• Cc1cccc(C(=O)/C=C/c2ccc(N3CCCC3)cc2)c1 = 27.6 µM
• COc1ccc(Cl)cc1/C=C/C(=O)c1ccc(N2CCCC2)cc1 = 8.17 µM
• O=C(/C=C/c1ccc(N2CCCC2)cc1)c1cc(F)ccc1F = 27.1 µM

----------
- System: H8
- Test Summary: CCK-8 cytotoxicity, normal cervical epithelial cells H8
- Format: cell-based
- Conditions Used: Epithelial cell, 48 h, read-out: IC50 H8
pIC50: −log10 of the molar value.
Item-by-item account of pIC50
Readout Kind: pIC50

• Cc1cccc(C(=O)/C=C/c2ccc(N3CCCC3)cc2)c1 = 4.04
• O=C(/C=C/c1ccc(N2CCCC2)cc1)c1ccccc1C(F)(F)F = 4.10
• COc1ccc(C(=O)/C=C/c2ccc(N3CCCC3)cc2)c(OC)c1OC = 4.09
• O=C(/C=C/c1ccc(N2CCCC2)cc1)c1cc(F)ccc1F = 4.45
• COc1ccc(Cl)cc1/C=C/C(=O)c1ccc(N2CCCC2)cc1 = 4.65
• O=C(/C=C/c1ccc(N2CCCC2)cc1)c1cccc(C(F)(F)F)c1 = 4.06
• COc1ccc(Cl)cc1C(=O)/C=C/c1ccc(N2CCCC2)cc1 = 4.24
• COc1ccc(Br)cc1C(=O)/C=C/c1ccc(N2CCCC2)cc1 = 4.25
• COc1ccc(C(=O)/C=C/c2ccc(N3CCCC3)cc2)c(OC)c1 = 4.13
• O=C(/C=C/c1ccc(N2CCCC2)cc1)c1ccccc1OC(F)(F)F = 4.11
• COc1ccc(F)cc1C(=O)/C=C/c1ccc(N2CCCC2)cc1 = 4.34
• COc1ccc(OC)c(C(=O)/C=C/c2ccc(N3CCCC3)cc2)c1 = 4.57
• COc1ccccc1C(=O)/C=C/c1ccc(N2CCCC2)cc1 = 4.21
• COc1ccc(Br)cc1/C=C/C(=O)c1ccc(N2CCCC2)cc1 [Compound D2] = 4.40
• COc1ccc(F)cc1/C=C/C(=O)c1ccc(N2CCCC2)cc1 [Compound D1] = 4.72

----------
- Tested on: C-33A
- Test Summary: CCK-8 antiproliferative assay, C-33A
- Type: cell-based
- Conditions Used: Homo sapiens, C-33-A; CCK-8, 48 h, Table 1; read-out: IC50 C-33A
Readout Kind: IC50

- O=C(/C=C/c1ccc(N2CCCC2)cc1)c1ccc(Cl)c(Cl)c1Cl [Compound A9]: > 100 µM
- O=C(/C=C/c1ccccc1)c1ccccc1 [Chalcone, reference compound]: 58.7 µM
- COc1ccccc1C(=O)/C(C)=C/c1ccc(N2CCCC2)cc1 [Compound B4]: > 100 µM
